Below: a set of entries, each annotated with reported pIC50.
# TESTED_TARGET: HDAC6 human recombinant (Homo sapiens (Human))
# ASSAY_EXPLANATION: HDAC6 enzyme activity inhibition assay (fluorimetric)
# CONDITIONS: test substance 0.1-1000 nM; 37° C. 60 minutes, developer 30 minutes; fluorescence Ex 390, Em 460
pIC50: −log10 of the molar value.

{"STRUCTURE": "CN1CCN(c2c(N(Cc3ccc(-c4nnc(C(F)F)o4)cn3)c3cccc(-c4ccncc4)c3)c(=O)c2=O)CC1", "TESTED_TARGET": "HDAC6 human recombinant (Homo sapiens (Human))", "pIC50": 6.99}
{"STRUCTURE": "CN1CCN(c2c(N(Cc3ccc(-c4nnc(C(F)F)o4)cc3F)c3ccc(F)c(F)c3)c(=O)c2=O)CC1", "TESTED_TARGET": "HDAC6 human recombinant (Homo sapiens (Human))", "pIC50": 7.19}
{"STRUCTURE": "CC(C)N1C[C@@H]2C[C@H]1CN2c1c(N(Cc2ccc(-c3nnc(C(F)F)o3)cn2)c2ccccc2)c(=O)c1=O", "TESTED_TARGET": "HDAC6 human recombinant (Homo sapiens (Human))", "pIC50": 7.55}
{"STRUCTURE": "CN1CCN(c2c(N(Cc3ccc(-c4nnc(C(F)F)o4)cc3F)c3cc(F)cc(-c4cccnc4)c3)c(=O)c2=O)CC1", "TESTED_TARGET": "HDAC6 human recombinant (Homo sapiens (Human))", "pIC50": 7.46}

---

# TESTED_TARGET: HDAC6 human recombinant (Homo sapiens (Human))
# ASSAY_EXPLANATION: HDAC6 enzyme activity inhibition assay (fluorimetric)
# CONDITIONS: test substance 0.1-1000 nM; 37° C. 60 minutes, developer 30 minutes; fluorescence Ex 390, Em 460
In plain terms, low IC50, meaning strictly below 0.05 µM, gives class 1, and everything else gives class 0.

{"STRUCTURE": "CN1C[C@@H]2C[C@H]1CN2c1c(N(Cc2ccc(-c3nnc(C(F)F)o3)cn2)c2ccccc2)c(=O)c1=O", "TESTED_TARGET": "HDAC6 human recombinant (Homo sapiens (Human))", "CLASS_ASSIGNMENT": "class 1"}
{"STRUCTURE": "CN1CCN(c2c(N(Cc3ccc(-c4nnc(C(F)F)o4)cc3F)c3cccc(Br)c3)c(=O)c2=O)CC1", "TESTED_TARGET": "HDAC6 human recombinant (Homo sapiens (Human))", "CLASS_ASSIGNMENT": "class 1"}
{"STRUCTURE": "O=c1c(N2CCS(=O)(=O)CC2)c(N(Cc2ccc(-c3nnc(C(F)F)o3)cc2F)c2ccccc2)c1=O", "TESTED_TARGET": "HDAC6 human recombinant (Homo sapiens (Human))", "CLASS_ASSIGNMENT": "class 1"}
{"STRUCTURE": "O=c1c(N2CC3(C2)CN(C2COC2)C3)c(N(Cc2ccc(-c3nnc(C(F)F)o3)cc2F)c2ccccc2)c1=O", "TESTED_TARGET": "HDAC6 human recombinant (Homo sapiens (Human))", "CLASS_ASSIGNMENT": "class 0"}
{"STRUCTURE": "O=c1c(N(Cc2ccc(-c3nnc(C(F)F)o3)cc2F)c2ccccc2)c(N2C[C@@H]3C[C@H]2CN3C2COC2)c1=O", "TESTED_TARGET": "HDAC6 human recombinant (Homo sapiens (Human))", "CLASS_ASSIGNMENT": "class 1"}

---

# TESTED_TARGET: HDAC6 human recombinant (Homo sapiens (Human), UniProt Q9UBN7)
# Sequence (Q9UBN7 whole entry): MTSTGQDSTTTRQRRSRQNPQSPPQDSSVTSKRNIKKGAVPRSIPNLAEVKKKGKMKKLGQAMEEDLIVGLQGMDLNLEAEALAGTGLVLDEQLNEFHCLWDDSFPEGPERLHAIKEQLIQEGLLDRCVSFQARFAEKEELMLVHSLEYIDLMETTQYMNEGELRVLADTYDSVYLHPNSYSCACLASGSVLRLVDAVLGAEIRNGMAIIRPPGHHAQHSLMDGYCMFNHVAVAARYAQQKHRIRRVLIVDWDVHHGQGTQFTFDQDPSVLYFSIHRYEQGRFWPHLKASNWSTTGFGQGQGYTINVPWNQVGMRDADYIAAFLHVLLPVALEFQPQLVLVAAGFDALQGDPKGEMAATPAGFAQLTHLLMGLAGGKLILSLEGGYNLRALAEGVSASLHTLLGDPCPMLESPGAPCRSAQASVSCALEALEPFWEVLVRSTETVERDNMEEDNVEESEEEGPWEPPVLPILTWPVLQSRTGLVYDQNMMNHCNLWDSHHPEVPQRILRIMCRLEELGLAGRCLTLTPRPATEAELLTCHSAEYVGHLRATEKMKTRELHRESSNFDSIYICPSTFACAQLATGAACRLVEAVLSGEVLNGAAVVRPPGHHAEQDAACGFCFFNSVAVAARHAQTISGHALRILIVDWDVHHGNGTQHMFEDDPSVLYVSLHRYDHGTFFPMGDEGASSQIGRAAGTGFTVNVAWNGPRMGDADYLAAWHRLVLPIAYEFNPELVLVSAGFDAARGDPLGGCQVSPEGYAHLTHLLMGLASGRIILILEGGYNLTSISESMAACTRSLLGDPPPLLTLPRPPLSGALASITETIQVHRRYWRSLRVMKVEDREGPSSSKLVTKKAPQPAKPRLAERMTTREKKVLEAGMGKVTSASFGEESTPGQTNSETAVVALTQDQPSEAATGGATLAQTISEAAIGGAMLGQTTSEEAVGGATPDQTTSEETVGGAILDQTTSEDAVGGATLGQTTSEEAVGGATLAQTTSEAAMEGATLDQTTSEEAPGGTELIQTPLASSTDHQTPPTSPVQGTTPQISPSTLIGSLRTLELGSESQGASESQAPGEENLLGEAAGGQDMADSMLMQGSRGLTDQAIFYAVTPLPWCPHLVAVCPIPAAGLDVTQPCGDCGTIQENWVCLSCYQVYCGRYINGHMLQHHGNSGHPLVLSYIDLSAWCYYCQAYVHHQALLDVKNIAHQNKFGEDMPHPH
# ASSAY_EXPLANATION: HDAC6 enzyme activity inhibition assay (fluorimetric)
# CONDITIONS: test substance 0.1-1000 nM; 37° C. 60 minutes, developer 30 minutes; fluorescence Ex 390, Em 460
# Experimental: The HDAC enzyme inhibition ability of the test substance was measured using the HDAC1 Fluorimetric Drug Discovery Assay Kit (Enzo life sciences: BML-AK511) and the HDAC6 human recombinant (Calbiochem: 382180). […] After sample treatment, the samples were reacted at 37° C. for 60 minutes, followed by reaction at 37° C. for 30 minutes by treatment with a developer, and fluorescence intensities (Ex 390, Em 460) thereof were measured using FlexStatin3 (Molecular device).
pIC50: −log10 of the molar value.
Recorded pIC50 values for a group of compounds are listed next.
READOUT_KIND: pIC50

{"STRUCTURE": "O=c1c(N2CCS(=O)(=O)CC2)c(N(Cc2ccc(-c3nnc(C(F)F)o3)cc2)c2ccccc2)c1=O", "READOUT_KIND": "pIC50", "VALUE": 7.54}
{"STRUCTURE": "O=c1c(N(Cc2ccc(-c3nnc(C(F)F)o3)cn2)c2ccccc2)c(N2C[C@@H]3C[C@H]2CN3C2COC2)c1=O", "READOUT_KIND": "pIC50", "VALUE": 7.37}
{"STRUCTURE": "CN1CCN(c2c(N(Cc3ccc(-c4nnc(C(F)F)o4)cc3)c3ccccc3)c(=O)c2=O)CC1", "READOUT_KIND": "pIC50", "VALUE": 7.51}

src = patent US20260028321A1
